Organism: Rattus norvegicus
Protocol text: Calcium antagonistic activity assessed against calcium-induced constriction of potassium-depolarized rat aorta.
Type: functional
Protocol conditions: Rattus norvegicus, Aorta; read-out: pA2 (converted)
Returns yes if the recorded Kb is greater than or equal to 80 nM, and no otherwise.

Examples from the recorded data:
O=C(CCCN1CCN(C/C=C/c2ccccc2)CC1)N[C@H]1c2ccccc2SC[C@@H]2CCCC[C@H]21 :: no
O=C(CCCN1CCN(c2ccc(Cl)cc2)CC1)N[C@H]1c2ccccc2SC[C@@H]2CCCC[C@H]21 :: no
O=C(CCCCCN1CCN(c2ccccc2)CC1)N[C@H]1c2ccccc2SC[C@@H]2CCCC[C@H]21 :: no
O=C(CCCN1CCN(c2ccc(F)cc2)CC1)N[C@H]1c2ccccc2SC[C@@H]2CCCC[C@H]21 :: no
c1ccc(N2CCN(CCCN[C@H]3c4ccccc4SC[C@@H]4CCCC[C@H]43)CC2)cc1 :: yes

Lab note: next compound to report on.
Check the entry `O=C(CCCN1CCN(C(=O)c2ccccc2)CC1)N[C@H]1c2ccccc2SC[C@@H]2CCCC[C@H]21` : does Kb equal or exceed 80 nM?
yes

* * *

Species: Rattus norvegicus
Protocol text: Calcium antagonistic activity assessed against calcium-induced constriction of potassium-depolarized rat aorta.
Type: functional
Protocol conditions: Rattus norvegicus, Aorta; read-out: pA2 (converted)
Lab note: anything with Kb below 30 nM is marked met; values at 30 nM or higher are marked not met.

Examples from the recorded data:
Cc1ccc(N2CCN(CCCC(=O)N[C@H]3c4ccccc4SC[C@@H]4CCCC[C@H]43)CC2)cc1 :: not met
O=C(CCCN1CCN(c2cccc(F)c2)CC1)N[C@H]1c2ccccc2SC[C@@H]2CCCC[C@H]21 :: met
O=C(CCN1CCN(c2ccccc2)CC1)N[C@H]1c2ccccc2SC[C@@H]2CCCC[C@H]21 :: not met
O=C(CCCN1CCN(c2cccc3ccccc23)CC1)N[C@H]1c2ccccc2SC[C@@H]2CCCC[C@H]21 :: not met
O=C(CCCN1CCN(c2ccc(F)cc2)CC1)N[C@H]1c2cc(Cl)ccc2SC[C@@H]2CCCC[C@H]21 :: not met

In the record for `O=C(CCCN1CCN(c2ccc(F)cc2)CC1)N[C@H]1c2ccccc2SC[C@@H]2CCCC[C@@H]21` , is Kb less than 30 nM?
met

In the record for `O=C(CN1CCN(c2ccccc2)CC1)N[C@H]1c2ccccc2SC[C@@H]2CCCC[C@H]21` , is Kb less than 30 nM?
not met

* * *

Catalogue of molecules with associated Kb
Species on record: Rattus norvegicus
Protocol text: Calcium antagonistic activity assessed against calcium-induced constriction of potassium-depolarized rat aorta.
Format: functional
Protocol conditions: Rattus norvegicus, Aorta; read-out: pA2 (converted)
Hi! Could you send only the number? It should be in nM, unit omitted.

O=C(CCCN1CCN(Cc2ccc(O)cc2)CC1)N[C@H]1c2ccccc2SC[C@@H]2CCCC[C@H]21 :: 70.8
O=C(CCCN1CCN(Cc2ccc(Cl)cc2)CC1)N[C@H]1c2ccccc2SC[C@@H]2CCCC[C@H]21 :: 26.9
O=C(CCCN1CCN(Cc2ccc(F)cc2)CC1)N[C@H]1c2ccccc2SC[C@@H]2CCCC[C@H]21 :: 57.5
O=C(CCCCN1CCN(c2ccccc2)CC1)N[C@H]1c2ccccc2SC[C@@H]2CCCC[C@H]21 :: 28.2
COc1ccc2c(c1)[C@H](NC(=O)CCCN1CCN(c3ccc(F)cc3)CC1)[C@@H]1CCCC[C@H]1CS2 :: 17

Which Kb reading was recorded for the molecule `O=C(CCCN1CCN(c2ccc(F)cc2)CC1)N[C@H]1c2cc(F)ccc2SC[C@@H]2CCCC[C@H]21` ?
77.6

Which Kb reading was recorded for the molecule `COc1ccc(CN2CCN(CCCC(=O)N[C@H]3c4ccccc4SC[C@@H]4CCCC[C@H]43)CC2)cc1` ?
56.2

* * *

Catalogue of compounds with associated Kb
Organism: Rattus norvegicus
Protocol text: Calcium antagonistic activity assessed against calcium-induced constriction of potassium-depolarized rat aorta.
Type: functional
Protocol conditions: Rattus norvegicus, Aorta; read-out: pA2 (converted)
Provide the measurement as a number trailed by its unit.

Sample answers from the record:
O=C(CCCN1CCN(c2ccc(F)cc2)CC1)N[C@@H]1c2ccccc2SC[C@@H]2CCCC[C@@H]21 :: 18.6 nM
O=C(CCCN1CCN(c2ccc(O)cc2)CC1)N[C@H]1c2ccccc2SC[C@@H]2CCCC[C@H]21 :: 69.2 nM
O=C(CCCN1CCN(c2ccc(F)cc2)CC1)N[C@@H]1c2ccccc2SC[C@@H]2CCCC[C@H]21 :: 26.9 nM

Which Kb reading was recorded for the compound `COc1ccccc1N1CCN(CCCC(=O)N[C@H]2c3ccccc3SC[C@@H]3CCCC[C@H]32)CC1` ?
46.8 nM

Which Kb reading was recorded for the compound `COc1ccc(N2CCN(CCCC(=O)N[C@H]3c4ccccc4SC[C@@H]4CCCC[C@H]43)CC2)cc1` ?
25.1 nM

Which Kb reading was recorded for the compound `O=C(CCCN1CCN(c2ccc(C(F)(F)F)cc2)CC1)N[C@H]1c2ccccc2SC[C@@H]2CCCC[C@H]21` ?
8.91 nM

Which Kb reading was recorded for the compound `O=C(CCCN1CCN(CCc2ccccc2)CC1)N[C@H]1c2ccccc2SC[C@@H]2CCCC[C@H]21` ?
72.4 nM

Which Kb reading was recorded for the compound `O=C(CCCN1CCN(C(c2ccccc2)c2ccccc2)CC1)N[C@H]1c2ccccc2SC[C@@H]2CCCC[C@H]21` ?
40.7 nM

Which Kb reading was recorded for the compound `O=C(CCCN1CCN(Cc2ccccc2)CC1)N[C@H]1c2ccccc2SC[C@@H]2CCCC[C@H]21` ?
15.8 nM

Which Kb reading was recorded for the compound `O=C(CCCN1CCN(c2ccc(F)cc2)CC1)N[C@H]1c2ccccc2OC[C@@H]2CCCC[C@H]21` ?
138 nM

Which Kb reading was recorded for the compound `O=C(CCCN1CCN(Cc2ccc([N+](=O)[O-])cc2)CC1)N[C@H]1c2ccccc2SC[C@@H]2CCCC[C@H]21` ?
19.1 nM

Which Kb reading was recorded for the compound O=C(CCCN1CCN(c2ccc(F)cc2)CC1)N[C@H]1c2ccccc2[S+]([O-])C[C@@H]2CCCC[C@H]21 (stereo in doubt; 49) ?
324 nM

Which Kb reading was recorded for the compound `CN(C(=O)CCN1CCN(c2ccccc2)CC1)[C@H]1c2ccccc2SC[C@@H]2CCCC[C@H]21` ?
148 nM

Which Kb reading was recorded for the compound `O=C(CCCN1CCN(C2CCCCC2)CC1)N[C@H]1c2ccccc2SC[C@@H]2CCCC[C@H]21` ?
45.7 nM

Which Kb reading was recorded for the compound `Cc1ccc2c(c1)[C@H](NC(=O)CCCN1CCN(c3ccc(F)cc3)CC1)[C@@H]1CCCC[C@H]1CS2` ?
141 nM
